# pIC50 values compiled below
Test system: Calu-3 cells
Test: In vitro cellular inhibitory activity on Calu-3 (XTT)
Type: cell-based
Settings: Homo sapiens, 72 hours
Text: Table 3 in vitro cellular inhibitory activities on Calu-3 (NSCLC nonsmall-cell lung cancer)
Counter-ions that a name gives are not always drawn.
Just the number, please; pIC50 means minus log10 of the concentration in mol/L.

IN: Which pIC50 is reported for this compound? C=CC(=O)Nc1cc2c(Nc3ccc(F)c(Cl)c3)ncnc2cc1OCCCN1CCOCC1 [CI-1033 hydrochloride, reference compound]
OUT: 6.16

IN: Which pIC50 reading was recorded for the compound C=CC(=O)Nc1cc2c(Nc3ccc(F)c(Cl)c3)ncnc2cc1OCC1CC2(CCN(C)CC2)C1 [Compound 18] ?
OUT: 7.42

IN: GET /values?readout=pIC50&item= C#Cc1cccc(Nc2ncnc3cc(OCCOC)c(OCCOC)cc23)c1 [Erlotinib hydrochloride, erlotinib hydrochloride, reference compound]
OUT: 5.88

IN: Can you look up the measured pIC50 of CS(=O)(=O)CCNCc1ccc(-c2ccc3ncnc(Nc4ccc(OCc5cccc(F)c5)c(Cl)c4)c3c2)o1 [Lapatinib ditosylate, lapatinib ditosylate, reference compound] for me?
OUT: 7.03
